# targetEntity: T1, corticotropin releasing factor 2 receptor
# T1 sequence (Q13324 whole entry, species assumed, looked up): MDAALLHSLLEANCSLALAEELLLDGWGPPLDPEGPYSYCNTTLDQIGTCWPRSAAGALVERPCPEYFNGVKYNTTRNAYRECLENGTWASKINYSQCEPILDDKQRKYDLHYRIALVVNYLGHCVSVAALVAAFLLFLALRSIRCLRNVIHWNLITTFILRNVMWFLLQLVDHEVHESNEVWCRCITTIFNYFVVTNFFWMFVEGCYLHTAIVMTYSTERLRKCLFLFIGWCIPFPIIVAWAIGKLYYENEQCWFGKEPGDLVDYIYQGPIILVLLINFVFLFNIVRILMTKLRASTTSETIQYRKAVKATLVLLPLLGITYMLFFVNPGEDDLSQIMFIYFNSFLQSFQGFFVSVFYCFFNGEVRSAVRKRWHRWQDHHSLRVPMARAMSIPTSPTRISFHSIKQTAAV
# assayName: cell-based or functional assay
Ends that are not written are not given here.
Exercise: state measured CRF2R EC50 for each of the binders provided.
Quick reminder: number only, in nM, skip the unit.

(Q) Param item = ZGPPISIDLPFHLLRKMIEIEKQEKEKQQATTNARILARV (C-terminal amide) [SEQ ID NO 146] ; retrieve measured CRF2R EC50.
(A) 8.2

(Q) Repeat with IVLSLDVPGPLLQILLEQTKQEAAREQATTNARILARV-NH2 [SEQ ID NO 5]
(A) 100

(Q) Repeat with ZGPPISIDLPFILLRKMIEIEKQEKEKQQAANNRLLLDTI (C-terminal amide) [SEQ ID NO 189]
(A) 7

(Q) Repeat with IVLSLDVPIGLLQILLEQARQEAAREQATTNARILARV-NH2 [SEQ ID NO 123]
(A) 3.49

(Q) Repeat with ZGPPISIDLPIYLLRKMIEIEKQEKEKQQAANNRLLLDTI (C-terminal amide) [SEQ ID NO 79]
(A) 22.3
